Data origin, for the record: the RNAGym collection of RNA variant scans (doi:10.7554/elife.80360)

Field: self-cleavage. Provide a value for each of the variants that follow.
B1: CPEB3 Ribozyme (parent)
chain: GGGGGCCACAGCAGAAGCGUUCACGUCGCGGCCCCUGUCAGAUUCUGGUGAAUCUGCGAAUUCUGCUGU

Variants of: B1
Experiment: self-cleavage, relative activity (ratio to wild type); higher = more cleavage; co-transcriptional
Give bare numbers.

A23G G48C | 0.975

Hi! Can you tell me self-cleavage for each of these variants?
1. C7A C9U
2. A59G U67G

1. 0.934
2. 1.03
